Observable: melting point

[[record]]
compound = "CCn1nc(-c2ccccc2)c(C(C)=O)c(Nc2cccc3ccc(C)nc23)c1=O"
observable = "melting point"
obs_value = "172 to 173 °C"


Data point: CC[C@H](CC(=O)NC(=O)OC)Nc1ccc(C(F)(F)F)cc1 ; melting point = 142 °C

Data point: COc1ccc(C2(C#Cc3ccccc3)CCC(=O)CC2)cc1OC1CCCC1 ; melting point = 99 to 100 °C

Recorded melting point (compound O=C(O)Cn1c(=S)c2ccccc2n(Cc2ccc(Cl)c(Cl)c2)c1=O ): 237 to 238 °C

Measured melting point of CCOC(=O)CN1CCN(CCNc2ncc3ncnc(Nc4ccc(F)c(Cl)c4)c3n2)CC1 : 128 to 129 °C

The reported value for CC(=O)c1ccc(Nc2ccccc2)cc1 in terms of melting point is 105 °C

Looking up CC1(C)CCc2c(Cl)cc(O)cc21 , I found its melting point recorded as 86.5 to 87.5 °C

Lookup result for COc1ccc2c(c1)COCc1cc(OC)c(OC)c(OC)c1-2 ; measured melting point: 151 to 153 °C

The compound OC1(C#Cc2ccc(Br)cn2)CN2CCC1CC2 (stereo unspecified) showed melting point equal to 194 to 198 °C

So, CCOC(=O)c1c(NCc2ccc(OC)c(Cl)c2)ccnc1Cl ? Its melting point was 116 to 118 °C

Looking up NC(C(=O)OC1CCCCC1)C(=O)OC1CCCCC1 , I found its melting point recorded as 46 to 47 °C

Hello, the source for this data is a melting point compilation (Tetko et al.; mined from patent text by program, amines drawn as free bases though some values may be those of a salt), in case you need it.
